- System: blackgrass (Alopecurus myosuroides)
- method-description: Test A preemergence soil spray, visual injury rating 0-100
- Format: in vivo
- particulars: 31 g ai/ha, 10 days, 0 = no effect, 100 = complete control
- Text: […]
Could you please report measured Blackgrass plant response rating (0-100) for the items listed next?

Solved cases below.
| molecule | quantity | endpoint-result |
| --- | --- | --- |
| CC(C)COC(=O)C1C=CC(NC(=O)C2(C)CN(c3cc(Cl)cc(Cl)c3)C(=O)O2)C1 (stereo not shown) [Compound 66] | Blackgrass plant response rating (0-100) | 30 |
| COC(=O)C1=CC[C@H](NC(=O)C2(C)CN(c3cc(F)cc(F)c3)C(=O)O2)C1 (mixture of isomers) [Compound 37] | Blackgrass plant response rating (0-100) | 0 |
| CSCCOC(=O)C1=CCC(NC(=O)C2(C)CN(c3cc(F)cc(F)c3)C(=O)O2)C1 (stereo not shown) [Compound 22] | Blackgrass plant response rating (0-100) | 0 |

Next molecule, Blackgrass plant response rating (0-100) to be filled in.
Exercise: Quickly give me recorded Blackgrass plant response rating (0-100) for CC1(C(=O)NC2C=CC(C(=O)OC3CCCC3)C2)CN(c2cc(Cl)cc(Cl)c2)C(=O)O1 (stereo not shown) [Compound 59]
Solution: 0

----------
- Tested on: wheat (Triticum aestivum)
- method-description: Test A postemergence application, visual injury rating 0-100
- Type: in vivo
- particulars: Postemergence, 16 g ai/ha, greenhouse 10 days; 0 no effect, 100 complete control
API: label(entry) gives fulfilled if the entry's Wheat plant response rating (0 to 100 scale) is strictly smaller than 20; on equality or larger values it gives not fulfilled.

| molecule | target-or-system | discrete-label |
| --- | --- | --- |
| CCOC(=O)C1CC(NC(=O)C2(C)CN(c3cc(F)cc(F)c3)C(=O)O2)C1 (stereo not shown) | wheat (Triticum aestivum) | not fulfilled |
| CCOC(=O)C1=CCC(NC(=O)C2(C)CN(c3cc(F)cc(F)c3)C(=O)O2)C1 (stereo not shown) | wheat (Triticum aestivum) | fulfilled |
| COC(=O)C1C=CC(NC(=O)C2(C(F)(F)F)CN(c3cc(F)c(F)c(F)c3)C(=O)O2)C1 (mixture of isomers) | wheat (Triticum aestivum) | not fulfilled |
| COC(=O)C1C=CC(NC(=O)C2(C)CN(c3cccc(OC(F)(F)F)c3)C(=O)O2)C1 (mixture of isomers) | wheat (Triticum aestivum) | not fulfilled |
| COC(=O)C1=CCC(NC(=O)C2(C)CN(c3cc(Cl)cc(Cl)c3)C(=O)O2)C1 (stereo not shown) [Compound 148] | wheat (Triticum aestivum) | fulfilled |

Shift focus to the following entry.
Exercise: Report whether reported Wheat plant response rating (0 to 100 scale) is lower than 20 (strictly) for COC(=O)C1C=CC(NC(=O)C2(C)CN(c3cc(C)cc(C)c3)C(=O)O2)C1 (stereo not shown)
Solution: not fulfilled

----------
- System: palmer (palmer amaranth, palmer pigweed, Amaranthus palmeri)
- method-description: Test A postemergence application, visual injury rating 0-100
- Type: in vivo
- particulars: Postemergence, 16 g ai/ha, greenhouse 10 days; 0 no effect, 100 complete control
quantity: Pigweed, Palmer plant response rating (0 to 100 scale)

Solved cases below.
| molecule | endpoint-result |
| --- | --- |
| COC(=O)C1=CCC(NC(=O)C2(C)CN(c3cc(Cl)cc(Cl)c3)C(=O)O2)C1 (centres unmarked) [Compound 148] | 10 |
| COC(=O)COC(=O)C1=CCC(NC(=O)C2(C)CN(c3cc(Cl)cc(Cl)c3)C(=O)O2)C1 (centres unmarked) [Compound 110] | 90 |
| CCOC(=O)C1=CCC(NC(=O)C2(C)CN(c3cc(Cl)cc(Cl)c3)C(=O)O2)C1 (centres unmarked) [Compound 113] | 0 |
| CC1(C(=O)NC2CC=C(C(=O)O)C2)CN(c2cc(Cl)cc(Cl)c2)C(=O)O1 (centres unmarked) [Compound 157] | 0 |
| COC(=O)C1CC(NC(=O)C2(C)CN(c3cc(F)cc(F)c3)C(=O)O2)C1 (centres unmarked) [Compound 117] | 0 |

Each of the following entries comes with a recorded value; kindly state Pigweed, Palmer plant response rating (0 to 100 scale) for each.
1. CC1(C(=O)NC2C=CC(C(=O)NO)C2)CN(c2cc(F)cc(F)c2)C(=O)O1 (centres unmarked) [Compound 137]
2. C=CC1(C(=O)NC2CC(C(=O)OC)C2)CN(c2cc(F)cc(F)c2)C(=O)O1 (centres unmarked) [Compound 173]
3. C=CC1(C(=O)NC2COC(C(=O)OC)C2)CN(c2cc(F)cc(F)c2)C(=O)O1 (centres unmarked) [Compound 171]

Solution:
1. 0
2. 90
3. 60

Each of the following entries comes with a recorded value; kindly state Pigweed, Palmer plant response rating (0 to 100 scale) for each.
1. COC(=O)C1=CCC(NC(=O)C2(C)CN(c3cc(Cl)cc(Cl)c3)C(=O)O2)C1 (centres unmarked) [Compound 149]
2. C=CC1(C(=O)NC2CC(C(=O)OC)C2)CN(c2cc(F)cc(F)c2)C(=O)O1 (centres unmarked) [Compound 175]
3. COC(=O)C1C=CC(NC(=O)C2(C)CN(c3cc(C)cc(C)c3)C(=O)O2)C1 (centres unmarked) [Compound 115]

Solution:
1: 90; 2: 0; 3: 10

Each of the following entries comes with a recorded value; kindly state Pigweed, Palmer plant response rating (0 to 100 scale) for each.
1. CC1(C(=O)NC2CC=C(C(=O)O)C2)CN(c2cc(F)cc(Cl)c2)C(=O)O1 (centres unmarked) [Compound 159]
2. CC(C)COC(=O)C1=CCC(NC(=O)C2(C)CN(c3cc(Cl)cc(Cl)c3)C(=O)O2)C1 (centres unmarked) [Compound 156]
3. CSCCOC(=O)C1=CCC(NC(=O)C2(C)CN(c3cc(Cl)cc(Cl)c3)C(=O)O2)C1 (centres unmarked) [Compound 146]
4. COC(=O)C1CC(NC(=O)C2(C)CN(c3cc(F)cc(F)c3)C(=O)O2)C1 (centres unmarked) [Compound 130]

Solution:
[80, 90, 0, 80]

Each of the following entries comes with a recorded value; kindly state Pigweed, Palmer plant response rating (0 to 100 scale) for each.
1. CC1(C(=O)NC2CC=C(C(=O)NS(=O)(=O)C3CC3)C2)CN(c2cc(F)cc(F)c2)C(=O)O1 (racemic) [Compound 90]
2. COC(=O)C1=CCC(NC(=O)C2(C)CN(c3cc(F)cc(Cl)c3)C(=O)O2)C1 (centres unmarked) [Compound 140]

Solution:
1. 0
2. 60

----------
- Test system: soybean (Glycine max)
- method-description: Test A postemergence application, visual injury rating 0-100
- Format: in vivo
- particulars: 62 g ai/ha, postemergence, 10 days, 0 = no effect, 100 = complete control
Could you please report measured Soybean plant response rating (0-100) for the items listed next?
Numbers only.

| compound | Soybean plant response rating (0-100) |
| --- | --- |
| CCOC(=O)C1=CCC(NC(=O)C2(C)CN(c3cc(F)cc(Cl)c3)C(=O)O2)C1 (stereo not shown) [Compound 134] | 0 |
| COC(=O)C1C=CC(NC(=O)C2(C)CN(c3cc(F)cc(F)c3)C(=O)O2)C1 (stereo not shown) [Compound 89] | 50 |
| CC1(C(=O)NC2CC=C(C(=O)O)C2)CN(c2cc(Cl)cc(Cl)c2)C(=O)O1 (stereo not shown) [Compound 158] | 90 |
| C=CC1(C(=O)NC2CC(C(=O)OC)C2)CN(c2cc(F)cc(F)c2)C(=O)O1 (stereo not shown) [Compound 172] | 80 |
| CC1(C(=O)NC2CC=C(C(=O)OCC(F)F)C2)CN(c2cc(F)cc(F)c2)C(=O)O1 (stereo not shown) [Compound 152] | 80 |
| COC(=O)C1=CCC(NC(=O)C2(C)CN(c3cc(F)cc(Cl)c3)C(=O)O2)C1 (stereo not shown) [Compound 140] | 70 |
| CSCCOC(=O)C1CC(NC(=O)C2(C)CN(c3cc(F)cc(F)c3)C(=O)O2)C1 (racemic) [Compound 120] | 80 |
| CC1(C(=O)NC2CC=C(C(=O)NS(C)(=O)=O)C2)CN(c2cc(F)cc(F)c2)C(=O)O1 (racemic) [Compound 103] | 40 |
| CC1(C(=O)NC2CC=C(C(=O)NS(=O)(=O)C(C)(C)C)C2)CN(c2cc(F)cc(F)c2)C(=O)O1 (racemic) [Compound 91] | 30 |

Exercise: Quickly give me recorded Soybean plant response rating (0-100) for CC(C)OC(=O)C1=CCC(NC(=O)C2(C)CN(c3cc(F)cc(F)c3)C(=O)O2)C1 (stereo not shown) [Compound 100]
Solution: 70

----------
- Test system: ragweed (common ragweed, Ambrosia artemisiifolia)
- method-description: Test A preemergence soil spray, visual injury rating 0-100
- Type: in vivo
- particulars: 31 g ai/ha, 10 days, 0 = no effect, 100 = complete control
Could you please report measured Ragweed plant response rating (0-100) for the items listed next?
Answers are plain numbers.

Solved cases below.
| molecule | target-or-system | quantity | endpoint-result |
| --- | --- | --- | --- |
| CC1(C(=O)NC2C=CC(C(=O)O)C2)CN(c2cc(F)cc(Cl)c2)C(=O)O1 (centres unmarked) [Compound 6] | ragweed (common ragweed, Ambrosia artemisiifolia) | Ragweed plant response rating (0-100) | 0 |
| CC(C)COC(=O)C1C=CC(NC(=O)C2(C)CN(c3cc(F)cc(F)c3)C(=O)O2)C1 (centres unmarked) [Compound 56] | ragweed (common ragweed, Ambrosia artemisiifolia) | Ragweed plant response rating (0-100) | 0 |
| CCOC(=O)C1C=CC(NC(=O)C2(C)CN(c3cc(F)cc(Cl)c3)C(=O)O2)C1 (centres unmarked) [Compound 3] | ragweed (common ragweed, Ambrosia artemisiifolia) | Ragweed plant response rating (0-100) | 10 |
| CCOC(=O)C1=CCC(NC(=O)C2(C)CN(c3cc(F)cc(F)c3)C(=O)O2)C1 (centres unmarked) [Compound 15] | ragweed (common ragweed, Ambrosia artemisiifolia) | Ragweed plant response rating (0-100) | 0 |
| CCOC(=O)C1CCC(NC(=O)C2(C)CN(c3cc(F)cc(Cl)c3)C(=O)O2)C1 (centres unmarked) [Compound 19] | ragweed (common ragweed, Ambrosia artemisiifolia) | Ragweed plant response rating (0-100) | 0 |
| CC(C)COC(=O)C1C=CC(NC(=O)C2(C)CN(c3cc(Cl)cc(Cl)c3)C(=O)O2)C1 (centres unmarked) [Compound 66] | ragweed (common ragweed, Ambrosia artemisiifolia) | Ragweed plant response rating (0-100) | 0 |
| CC(=O)COC(=O)C1C=CC(NC(=O)C2(C)CN(c3cc(Cl)cc(Cl)c3)C(=O)O2)C1 (centres unmarked) [Compound 67] | ragweed (common ragweed, Ambrosia artemisiifolia) | Ragweed plant response rating (0-100) | 0 |
| CC(C)OC(=O)C1CC(NC(=O)C2(C)CN(c3cc(F)cc(F)c3)C(=O)O2)CO1 (centres unmarked) [Compound 32] | ragweed (common ragweed, Ambrosia artemisiifolia) | Ragweed plant response rating (0-100) | 0 |
| CC1(C(=O)NC2C=CC(C(=O)O)C2)CN(c2cc(Cl)cc(Cl)c2)C(=O)O1 (centres unmarked) [Compound 62] | ragweed (common ragweed, Ambrosia artemisiifolia) | Ragweed plant response rating (0-100) | 30 |
| CC1(C(=O)NC2CC=C(C(=O)OCC(F)(F)F)C2)CN(c2cc(F)cc(F)c2)C(=O)O1 (centres unmarked) [Compound 1] | ragweed (common ragweed, Ambrosia artemisiifolia) | Ragweed plant response rating (0-100) | 20 |

Each of the following entries comes with a recorded value; kindly state Ragweed plant response rating (0-100) for each.
1. CC(C)OC(=O)C1=CCC(NC(=O)C2(C)CN(c3cc(F)cc(F)c3)C(=O)O2)C1 (centres unmarked) [Compound 5]
2. CC1(C(=O)NC2C=CC(C(=O)OCC(F)(F)F)C2)CN(c2cc(F)cc(F)c2)C(=O)O1 (centres unmarked) [Compound 55]

Solution:
1. 0
2. 0
